Sourced from patent US20050182242A1

# Tested on: PI(3,4,5)P3 liposomes
# experimentSummary: Yeast proteome chip probed with PI(3,4,5)P3 liposomes
# experimentalParameters: liposome binding signal on yeast proteome chip, Cy3-streptavidin detection
readoutKind: PI(3, 4, 5)P3
Give your answer as a number; write no unit.

Q: Data request, read-out PI(3, 4, 5)P3, for YER046W: yeast GST-HisX6 fusion protein on proteome chip (protein, UniProt P40031 1-143, looked up, GST-His6 tag, yeast GST-HisX6 fusion protein on proteome chip) Sporulation-specific protein …: MGKNHFLKDFSALPEDVLIENERGITLLGYPLFSPKILLPHVDPPQFQRLNTENGSLIALSKNTISNFIELYPIDLSTERTAGSSSSQMTKWFVLMDYKEKYDIDDQGWCYSWNFNNSRWKSKNGLVRRRVWVRLPTTSHGLD
Result: 5.62

Q: Data request, read-out PI(3, 4, 5)P3, for MPD2: yeast GST-HisX6 fusion protein on proteome chip (protein, UniProt Q99316 23-277, looked up, GST-His6 tag, yeast GST-HisX6 fusion protein on proteome chip) Protein disulfide isomerase …: YSEAVTMVKSIEQYFDICNRNDSYTMIKYYTSWCQHCKTLAPVYEELGELYAKKANKDDTPINFLEVNCEFFGPTLCTDLPGFPIIELVKPRTKPLVLPKLDWSSMKFHERLWQRIKTWFNNPKYQLDTSRVVRFEGSRNLKSLSNFIDTVRSKDTEERFIEHIFDDSRNCNEELRSQQLLCKAGKEYYSDTLSKLYGDVNGLEKERRRLEALIKQNGDDLSKEVKEKLKIIRLQLSLLSHIEDQLEDTSSHDEL
Result: 15.07
